# MEASURED ON: Cytochrome P450 2C9 (Homo sapiens)
# ASSAY REMARKS: Cytochrome panel assay with activity outcomes
# COND: recombinant CYP, pro-luciferin dealkylation, luminescence, p450-cyp2c9; series mostly up to 57.1 µM
About 4,000 (25%) of roughly 16,000 compounds were called active. Roughly 26% stayed inconclusive and do not appear here. The call rests on the fitted dose curve; in most records, active means well fitted curve in the direction sought with a large enough effect; inconclusive means small, poorly fitted or top-dose-only effect, or effect the other way; inactive means no such curve, though single readings can be large or run the other way. A selection follows.
Labels: active, inactive

COMPOUND | GROUP LABEL
COc1cccc(/C=N\NC(=O)C2C(=O)NCC2c2ccccc2)c1O (stereo not drawn) | active
COc1cccc(Cn2c(=O)c(-c3cccs3)nc3cncnc32)c1 | active
Cn1cc(-c2nc3cncnc3n(Cc3ccc(F)cc3)c2=O)c2ccccc21 | inactive
CC(C)=C1C(=O)C(c2ccccc2)=C2CN3C(=O)N(CCc4ccccc4)C(=O)[C@]3(Cc3ccccc3)[C@H]21 | active
O=c1c(-c2cc(F)cc(F)c2)nc2cnc(N3CCOCC3)nc2n1C[C@H]1CCCO1 | inactive
Cc1cccc(OCCn2c(S(=O)(=O)O)nc3ccccc32)c1 | active
COc1cccc(Nc2ncc3nc(-c4cccs4)c(=O)n(CCC#N)c3n2)c1 | inactive
CCCCSCc1nc2nc(Cl)c(Cl)nc2[nH]1 | active
CCn1c(N)nc2ccccc21 | inactive
CC(Sc1ccc2c(c1)OCCO2)C(=O)Nc1ncc(Cl)cc1Cl (stereo not drawn) | active
c1ccn(-c2ccc(N3CCOCC3)cc2)c1 | inactive
CS(=O)(=O)c1nc2ccccc2n1Cc1ccccc1 | inactive
COc1cc(/C=N\NC(=O)C2C(=O)NCC2c2ccccc2)cc(OC)c1O (stereo not drawn) | inactive
COc1ncc2nc(-c3cccs3)c(=O)n(Cc3ccc(F)cc3)c2n1 | inactive
O=S(=O)(O)c1nc2ccccc2n1Cc1ccccc1 | active
Cc1nc2cnc(Nc3ccccc3)nc2n(CCc2ccccc2)c1=O | inactive
CCC(C)NC(=O)c1cnn2c(C)c3c(nc12)CCCC3 (stereo not drawn) | inactive
O=c1[nH]c(=O)n([C@@H]2C[C@H](O)[C@H](CO)O2)cc1C(F)(F)F | inactive
Cc1cccc(CCNc2nc3ccccc3n3nnnc23)c1 | inactive
CC(C)CN1CCCC2(CCN(C(=O)c3csnn3)CC2)C1 | inactive
CC1(C)C(=O)C(c2ccccc2)=C2CN3C(=O)N(CCc4ccccc4)C(=O)C3(Cc3ccc(C(F)(F)F)cc3)C=C21 (stereo not drawn) | inactive
Cn1ncc(C#N)c1/N=C/N1CCCCCC1 | inactive
O=c1c(-c2cccs2)nc2cncnc2n1Cc1ccccc1 | active
